Test system: MOLT-4 leukemia
Experiment: NCI tumour cell line growth inhibition, 48 h
Collected TGI values appear next to each entry.

Record excerpt, results attached:
CCC1C(C(=O)Nc2ccccc2C)=C(C)NC(C)=C1c1ccccc1C (stereo not drawn); > 100 µM
CC(C)(C)C1CCC2c3c([nH]c4ccccc34)C3C(=O)N(c4ccccc4Cl)C(=O)C3C2C1 (stereo not drawn); > 100 µM

Moving on to the next compound.
Given item O=C1OC(C2Cc3ccc4c(c3C2=O)CCC4)c2ccccc21 (stereo not drawn) , the value recorded as its TGI is > 100 µM

---

System: HOP-62 NSCLC
Experiment: NCI tumour cell line growth inhibition, 48 h
Collected TGI values appear next to each entry.

CCOC(=O)Cn1c2ccc(Br)cc2c2nc3ccccc3nc21; > 100 µM
O=c1cc(NNCc2ccccc2)[nH]c(=O)[nH]1; > 100 µM
CN(C)CCCSc1ccccc1NC1=C(Cl)C(=O)C(Nc2ccccc2SCCCN(C)C)=C(Cl)C1=O; 10.6 µM
COc1ccc(/C=C2\COc3ccc(O)c(O)c3C2=O)c(OC)c1OC; 20 µM
COc1ccc(C2ON(c3ccccc3)CC=C2C)cc1 (configuration not stated); > 100 µM
CC(C)CCCC(C)[C@H]1CC[C@H]2n3c(nc4ccccc43)CCC[C@]12C (some centres not stated); 40.6 µM

Given item O=S1(=O)c2ccccc2C(Nc2ccccc2)N1c1ccccc1 (configuration not stated) , the value recorded as its TGI is > 100 µM

Given item COc1ccc(C(=NN=C(N)N)c2ccc(OC)cc2)cc1 , the value recorded as its TGI is 15.5 µM

Given item CC(=O)CC/C=C(\C)[C@H](O)[C@H](C)C(=O)O[C@H]1C[C@H](C)C=C2C=C[C@@]3(C)O[C@@H](O)CC(=O)[C@]3(C)[C@H]21 , the value recorded as its TGI is 3.63 µM

Given item CC(=O)NCCCCN(CCCNC(C)=O)C(=O)CNS(=O)(=O)c1cccc2c(N(C)C)cccc12 , the value recorded as its TGI is > 100 µM

Given item CC1(C)C2CCC1(C)C(OC(=O)/C=C/C(=O)OC1CC3CCC1(C)C3(C)C)C2 (configuration not stated) , the value recorded as its TGI is > 100 µM

Given item CSc1nc(CO)c(CO)n1C , the value recorded as its TGI is > 100 µM

Given item C[C@@H]1C(=O)O[C@H]1[C@H](O)CO , the value recorded as its TGI is > 100 µM

Given item CC1=NN(C(=O)Nc2ccc(Cl)cc2)C(=O)C2CCC(=O)N12 (configuration not stated) , the value recorded as its TGI is > 100 µM

Given item O=C(NNC1=NCCCN1)c1ccco1 , the value recorded as its TGI is > 100 µM

Given item C=C1C[C@@H]2O[C@H]3[C@H]4[C@@H](C[C@@H](C)[C@@H](OC(C)=O)[C@H]42)[C@@H](C)CO[C@@]3(C)[C@H](OC(=O)CCCCCCC)C[C@H]1O , the value recorded as its TGI is 32.9 µM

Given item CCCC1CC(=O)NC(=O)C1C(=O)OC(C)(C)C (configuration not stated) , the value recorded as its TGI is > 100 µM

Given item COc1ccc2c3c1OC1C(OC)(OC)C=C[C@@]4(Br)[C@@H](C2)N(CC2CC2)CC[C@]314 (some centres not stated) , the value recorded as its TGI is > 100 µM

Given item COc1ccc(CCN(CC(=O)N(CC(N)=O)C2CCC[C@@H]2OCc2ccccc2)C(=O)CN(C(=O)CN(CCc2ccc(Cl)cc2)C(=O)CN(C(=O)CN(C)Cc2ccccc2F)[C@H](C)C2CCCCC2)[C@H](C)C2CCCCC2)cc1OC (some centres not stated) , the value recorded as its TGI is > 50 µM

Given item CCOC(=O)CC[C@H](NC(=O)N[C@H](C)c1ccccc1)C(=O)OCC , the value recorded as its TGI is > 100 µM

Given item COC(=O)c1ccc(/C=C(\c2ccc([N+](=O)[O-])o2)S(=O)(=O)c2ccc(NC(C)=O)cc2)o1 , the value recorded as its TGI is 33.4 µM
